tested_system: COVID S1 RBM Fc fusion (Antigen 2) (SARS-CoV-2, UniProt P0DTC2 437-508)
protocol_description: phage ELISA
metric_name: ELISA fold over background (fold)
Write the number in fold without appending the unit.

Answered cases to consult:
>  <binder>
SARS-CoV-2 variant 1-32 (antibody, V domains shown) VH: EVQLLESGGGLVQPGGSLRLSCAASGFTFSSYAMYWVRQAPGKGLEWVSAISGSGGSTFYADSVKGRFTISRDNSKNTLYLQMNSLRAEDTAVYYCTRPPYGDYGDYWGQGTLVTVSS VL: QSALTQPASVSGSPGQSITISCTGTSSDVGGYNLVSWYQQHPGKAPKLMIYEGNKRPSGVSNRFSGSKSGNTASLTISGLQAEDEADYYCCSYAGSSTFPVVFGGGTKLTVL

>  <value_measured>
1.1

$$$$
>  <binder>
SARS-CoV-2 variant 1-23 (antibody, V domains shown) VH: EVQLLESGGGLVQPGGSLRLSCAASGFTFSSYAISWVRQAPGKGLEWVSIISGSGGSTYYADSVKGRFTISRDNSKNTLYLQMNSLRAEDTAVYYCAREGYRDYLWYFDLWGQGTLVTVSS VL: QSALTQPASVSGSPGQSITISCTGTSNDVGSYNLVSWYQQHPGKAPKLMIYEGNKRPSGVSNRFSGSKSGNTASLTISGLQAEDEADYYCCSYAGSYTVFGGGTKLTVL

>  <value_measured>
1.6

$$$$
>  <binder>
SARS-CoV-2 variant 1-3 (antibody, V domains shown) VH: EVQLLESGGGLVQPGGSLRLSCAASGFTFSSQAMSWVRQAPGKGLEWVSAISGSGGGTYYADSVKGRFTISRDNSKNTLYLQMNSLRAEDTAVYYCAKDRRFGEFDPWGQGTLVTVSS VL: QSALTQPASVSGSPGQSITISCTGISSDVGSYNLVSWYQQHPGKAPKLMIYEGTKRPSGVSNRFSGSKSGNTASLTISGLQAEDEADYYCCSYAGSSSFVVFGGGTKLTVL

>  <value_measured>
1.5

$$$$
>  <binder>
SARS-CoV-2 variant 1-27 (antibody, V domains shown) VH: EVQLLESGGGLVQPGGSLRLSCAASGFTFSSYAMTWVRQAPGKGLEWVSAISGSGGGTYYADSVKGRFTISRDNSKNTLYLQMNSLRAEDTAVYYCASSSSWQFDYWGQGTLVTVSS VL: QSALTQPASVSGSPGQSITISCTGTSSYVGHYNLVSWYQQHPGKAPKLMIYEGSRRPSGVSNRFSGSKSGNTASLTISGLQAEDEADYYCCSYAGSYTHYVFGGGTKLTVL

>  <value_measured>
1.6

$$$$
>  <binder>
SARS-CoV-2 variant 1-25 (antibody, V domains shown) VH: EVQLLESGGGLVQPGGSLRLSCAASGFTFSDYAMNWVRQAPGKGLEWVSIISGSGGSTYYADSVKGRFTISRDNSKNTLYLQMNSLRAEDTAVYYCAREGYRDYLWYFDLWGQGTLVTVSS VL: QSALTQPASVSGSPGQSITISCSGTSSDVGSYNLVSWYQQHPGKAPKLMIYEASKRPSGVSNRFSGSKSGNTASLTISGLQAEDEADYYCCSYAGSSTVFGGGTKLTVL

>  <value_measured>
0.8

$$$$

Challenge: Reported ELISA fold over background for SARS-CoV-2 variant 1-7 (antibody, V domains shown) VH: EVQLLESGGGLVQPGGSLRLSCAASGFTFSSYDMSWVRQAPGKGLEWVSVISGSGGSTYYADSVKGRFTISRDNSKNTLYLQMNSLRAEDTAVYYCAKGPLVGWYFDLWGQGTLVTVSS VL: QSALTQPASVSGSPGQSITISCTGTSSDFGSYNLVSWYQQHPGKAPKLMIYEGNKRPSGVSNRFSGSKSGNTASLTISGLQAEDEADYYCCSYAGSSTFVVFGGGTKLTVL : what is it?
Response given: 1.6

Challenge: SARS-CoV-2 variant 1-10 (antibody, V domains shown) VH: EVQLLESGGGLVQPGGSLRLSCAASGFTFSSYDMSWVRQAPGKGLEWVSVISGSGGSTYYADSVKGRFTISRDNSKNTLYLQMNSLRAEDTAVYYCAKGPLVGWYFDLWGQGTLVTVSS VL: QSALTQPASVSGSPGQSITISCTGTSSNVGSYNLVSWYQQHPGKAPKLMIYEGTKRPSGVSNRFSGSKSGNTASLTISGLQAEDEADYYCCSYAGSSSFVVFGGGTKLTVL , same question.
Response given: 1.1

Challenge: SARS-CoV-2 variant 1-49 (antibody, V domains shown) VH: EVQLLESGGGLVQPGGSLRLSCAASGFTFSSYAMYWVRQAPGKGLEWVSAISGSAGSTYYADSVKGRFTISRDNSKNTLYLQMNSLRAEDTAVYYCARDTNDFWGQGTLVTVSS VL: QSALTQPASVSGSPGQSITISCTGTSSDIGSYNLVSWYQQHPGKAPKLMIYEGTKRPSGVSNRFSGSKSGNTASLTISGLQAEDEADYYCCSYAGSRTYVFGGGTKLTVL , same question.
Response given: 0.8

Challenge: SARS-CoV-2 variant 1-31 (antibody, V domains shown) VH: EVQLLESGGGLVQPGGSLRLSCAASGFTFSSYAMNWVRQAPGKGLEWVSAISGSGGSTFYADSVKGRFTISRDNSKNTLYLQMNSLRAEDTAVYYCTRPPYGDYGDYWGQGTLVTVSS VL: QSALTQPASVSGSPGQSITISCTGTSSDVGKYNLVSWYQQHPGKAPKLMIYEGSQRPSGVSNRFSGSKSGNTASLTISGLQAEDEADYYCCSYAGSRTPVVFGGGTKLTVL , same question.
Response given: 1.2

Challenge: SARS-CoV-2 variant 1-35 (antibody, V domains shown) VH: EVQLLESGGGLVQPGGSLRLSCAASGFTFSNYAMSWVRQAPGKGLEWVSDISGSGGSTYYADSVKGRFTISRDNSKNTLYLQMNSLRAEDTAVYYCVKGTIPIFGVIRSAFDYWGQGTLVTVSS VL: QSALTQPASVSGSPGQSITISCTGTSSDVGSYSLVSWYQQHPGKAPKLMIYEGTKRPSGVSNRFSGSKSGNTASLTISGLQAEDEADYYCCSYAGSYSYVVFGGGTKLTVL , same question.
Response given: 1.6
